biological target: Trx-6×His-BCL6 (human BCL6 BTB domain covering amino-acid sequence 5-129) (Homo sapiens); construct: made in house; assay: HTRF assay (BCL6 / BCOR peptide); format: binding; settings: 1 nM Trx-6×His-BCL6, 300 nM BCOR-AF633 peptide, 2 hours incubation at room temperature; read-out: HTRF avg pIC50 (converted)
Readout: IC50 (nM)
# unit: nM | format: bare number

Some entries whose results are on file:
# Molecule, Measurement Target, IC50, nM
records = [
    ("CN(CCC(C)(C)O)c1ncc(Cl)c(Nc2ccc3c(c2)c2c(c(=O)n3C)OCC(F)(F)[C@H](C3CC3)N2)n1 [Example 9v]", "Trx-6×His-BCL6 (human BCL6 BTB domain covering amino-acid sequence 5-129) (Homo sapiens)", 4.68),
    ("[2H]C([2H])([2H])N1CCN(c2ncc(Cl)c(Nc3ccc4c(c3)c3c(c(=O)n4C)OCC(F)(F)[C@H](C4CC4)N3)n2)CC(O)C1 (stereo partly drawn) [Example 12x15-d3]", "Trx-6×His-BCL6 (human BCL6 BTB domain covering amino-acid sequence 5-129) (Homo sapiens)", 1.78),
    ("Cn1c(=O)c2c(c3cc(Nc4nc(N5CC[C@@H](F)[C@@H](F)C5)ncc4F)ccc31)N[C@@H](C1CC1)C(F)(F)CO2 (racemic) [Example 10d]", "Trx-6×His-BCL6 (human BCL6 BTB domain covering amino-acid sequence 5-129) (Homo sapiens)", 20.9),
    ("CC(=O)N1C2CCC1CN(c1ncc(Cl)c(Nc3ccc4c(c3)c3c(c(=O)n4C)OCC(F)(F)[C@H](C4CC4)N3)n1)C2 (single isomer, unassigned) [Example 7b]", "Trx-6×His-BCL6 (human BCL6 BTB domain covering amino-acid sequence 5-129) (Homo sapiens)", 1.62),
    ("Cn1c(=O)c2c(c3cc(Nc4nc(N5[C@@H]6COC[C@H]5C[C@@H](O)C6)ncc4F)ccc31)N[C@@H](C1CC1)C(F)(F)CO2 [Example 5a]", "Trx-6×His-BCL6 (human BCL6 BTB domain covering amino-acid sequence 5-129) (Homo sapiens)", 1.51),
]

Reported IC50, molecule Cn1c(=O)c2c(c3cc(Nc4nc(N5CC[C@H]5CO)ncc4Cl)ccc31)N[C@@H](C1CC1)C(F)(F)CO2 [Example 12x33a] : ____
2.14

----------
target: Trx-6×His-BCL6 (human BCL6 BTB domain covering amino-acid sequence 5-129) (Homo sapiens, UniProt P41182); construct: made in house; assay: HTRF assay (BCL6 / BCOR peptide); type: binding; settings: 1 nM Trx-6×His-BCL6, 300 nM BCOR-AF633 peptide, 2 hours incubation at room temperature; read-out: HTRF avg pIC50 (converted)
Reported IC50 by item:
Report field: quantity (unit follows the number).

Study these solved cases before continuing.
# Compound, IC50
rows = [
    ("Cn1c(=O)c2c(c3cc(Nc4nc(N5CC(CC#N)C5)ncc4Cl)ccc31)N[C@@H](C1CC1)C(F)(F)CO2 [Example 11t]", "3.47 nM"),
    ("CC1CN(c2ncc(Cl)c(Nc3ccc4c(c3)c3c(c(=O)n4C)OCC(F)(F)[C@H](C4CC4)N3)n2)C1 [Example 11o]", "7.59 nM"),
    ("C[C@@H]1CCN(c2ncc(Cl)c(Nc3ccc4c(c3)c3c(c(=O)n4C)OCC(F)(F)[C@H](C4CC4)N3)n2)C1", "21.4 nM"),
]

Here's the next entry for you.
Reported IC50 for Cn1c(=O)c2c(c3cc(Nc4nc(NCC(C)(C)O)ncc4Cl)ccc31)N[C@@H](C1CC1)C(F)(F)CO2 : what is it?
3.63 nM

Data origin, for the record: patent US12528826B2
